# targetDesc: recombinant human HPK1 (Homo sapiens (Human), UniProt Q92918)
# Sequence (Q92918 whole entry): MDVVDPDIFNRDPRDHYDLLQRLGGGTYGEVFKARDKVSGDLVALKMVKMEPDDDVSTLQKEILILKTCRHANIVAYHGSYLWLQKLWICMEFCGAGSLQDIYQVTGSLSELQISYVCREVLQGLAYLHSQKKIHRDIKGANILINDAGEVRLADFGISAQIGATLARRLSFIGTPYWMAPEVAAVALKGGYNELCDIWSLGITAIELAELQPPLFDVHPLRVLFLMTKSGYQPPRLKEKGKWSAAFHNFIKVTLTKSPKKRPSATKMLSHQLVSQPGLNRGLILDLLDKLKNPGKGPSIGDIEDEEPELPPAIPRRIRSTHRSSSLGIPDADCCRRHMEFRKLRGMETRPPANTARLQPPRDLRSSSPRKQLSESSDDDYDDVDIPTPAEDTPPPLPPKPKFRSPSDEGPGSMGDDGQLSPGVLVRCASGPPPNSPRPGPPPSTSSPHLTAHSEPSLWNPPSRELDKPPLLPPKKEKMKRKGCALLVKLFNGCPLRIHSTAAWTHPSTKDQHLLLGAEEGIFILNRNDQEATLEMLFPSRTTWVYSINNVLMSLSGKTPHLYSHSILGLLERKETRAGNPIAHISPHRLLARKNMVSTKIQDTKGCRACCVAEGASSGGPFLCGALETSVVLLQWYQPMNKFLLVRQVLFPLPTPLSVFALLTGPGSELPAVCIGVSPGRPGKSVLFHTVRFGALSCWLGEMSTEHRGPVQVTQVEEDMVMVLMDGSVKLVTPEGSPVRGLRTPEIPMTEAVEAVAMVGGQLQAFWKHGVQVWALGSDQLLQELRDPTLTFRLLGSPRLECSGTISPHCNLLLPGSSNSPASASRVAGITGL
# assayProtocol: HPK1 kinase assay (ADP-Glo)
# conditionDetails: 25 μM ATP, MBP substrate
# Procedure: HPK1 kinase activity was measured by Promega's ADP-Glo™ kinase assay. […] Luminescence was detected after 30-min room temperature incubation with the Molecular device I3X plate reader. The IC50 values were calculated from a series of percent inhibition values determined at a range of inhibitor concentration using software routines as implemented in the GraphPad Prism 7 software and SigmaPlot13.0.

molecule	targetDesc	IC50
CCOc1c(F)cc2[nH]ncc2c1-c1ccn2nc(NC(=O)[C@@H]3C[C@@H]3F)cc2c1	recombinant human HPK1 (Homo sapiens (Human), UniProt Q92918)	< 100 nM
O=C(Nc1cn2cc(-c3c(Cl)c(F)c(OC4CC4)c4[nH]ncc34)ccc2n1)[C@@H]1C[C@@H]1F	recombinant human HPK1 (Homo sapiens (Human), UniProt Q92918)	< 100 nM
Cc1c(F)c(C(=O)N(C)C)c2[nH]ncc2c1-c1ccc2nc(NC(=O)[C@@H]3C[C@@H]3F)sc2n1	recombinant human HPK1 (Homo sapiens (Human), UniProt Q92918)	< 100 nM
C=C(C)c1c(F)c(Cl)c(-c2ccn3nc(NC(=O)[C@@H]4C[C@@H]4F)cc3c2)c2cn[nH]c12	recombinant human HPK1 (Homo sapiens (Human), UniProt Q92918)	< 100 nM
CNC1CCC(N(C)c2c(F)c(Cl)c(-c3ccn4nc(NC(=O)[C@@H]5C[C@@H]5F)cc4c3)c3cn[nH]c23)CC1 (stereo partly drawn) [Example 504]	recombinant human HPK1 (Homo sapiens (Human), UniProt Q92918)	< 100 nM
Cc1ccc2[nH]ncc2c1-c1ccc2nc(NC(=O)C3CC(F)C3)sc2c1 (stereo not drawn) [Example 7]	recombinant human HPK1 (Homo sapiens (Human), UniProt Q92918)	101 to 500 nM
CCc1c(F)cc2[nH]ncc2c1-c1ccc2nc(NC(=O)C3CC3)cn2c1	recombinant human HPK1 (Homo sapiens (Human), UniProt Q92918)	< 100 nM
CCc1c(F)cc2[nH]ncc2c1-c1ccn2nc(NC(=O)[C@@H]3C[C@@H]3F)cc2c1	recombinant human HPK1 (Homo sapiens (Human), UniProt Q92918)	< 100 nM
Cc1c(F)cc2[nH]nc(C3CC3)c2c1-c1ccn2nc(NC(=O)[C@@H]3C[C@@H]3F)cc2c1	recombinant human HPK1 (Homo sapiens (Human), UniProt Q92918)	> 1000 nM
CN(C)c1c(F)c(Cl)c(-c2ccc3nc(NC(=O)C4CC4)cn3c2)c2cn[nH]c12	recombinant human HPK1 (Homo sapiens (Human), UniProt Q92918)	< 100 nM
CCc1c(F)cc2[nH]ncc2c1-c1ccc2nc(NC(=O)[C@@H]3C[C@@H]3F)sc2n1	recombinant human HPK1 (Homo sapiens (Human), UniProt Q92918)	< 100 nM
CCOc1c(F)c(C)c(-c2ccc3nc(NC(=O)[C@@H]4C[C@@H]4F)sc3n2)c2cn[nH]c12	recombinant human HPK1 (Homo sapiens (Human), UniProt Q92918)	< 100 nM
C[S+]([O-])c1c(F)cc2[nH]ncc2c1-c1cc2sc(NC(=O)[C@@H]3C[C@@H]3F)nc2cn1 (stereo partly drawn)	recombinant human HPK1 (Homo sapiens (Human), UniProt Q92918)	> 1000 nM
CC(C)Oc1c(F)c(Cl)c(-c2ccc3nc(NC(=O)[C@@H]4C[C@@H]4F)cn3c2)c2cn[nH]c12	recombinant human HPK1 (Homo sapiens (Human), UniProt Q92918)	< 100 nM
Cc1c(F)c(F)c2[nH]nc(F)c2c1-c1ccc2nc(NC(=O)[C@@H]3C[C@@H]3F)sc2c1	recombinant human HPK1 (Homo sapiens (Human), UniProt Q92918)	101 to 500 nM

Data provenance is patent US11649255B2.
